Recorded pest or weed control at 70 g/ha, one value per entry.
- Tested on: Key Grass and Sedge Weeds as well as Grass Crops
- Protocol Notes: Post-emergent Test II herbicidal activity (Table 6)
- Format: in vivo
- Settings: post-emergence, 336 h, ORYSA: rice (Oryza sativa), application rate 70 g ai/ha, read-out: Visual Growth Reduction (%) 14 Days After Application, ORYSA

1) COc1c(N)nc(-c2ccc(Br)c(F)c2F)nc1C(=O)O : 30 to 44%

Lookup: Can you share its pest or weed control at 70 g/ha? I mean this molecule: COC(=O)c1nc(-c2ccc(I)cc2)c(C)c(N)c1Cl
Found: 0 to 29%

Lookup: Ok, now C=Cc1c(N)nc(-c2ccc(C#N)cc2F)nc1C(=O)O
Found: 0 to 29%

Lookup: Consider next the molecule Nc1cc(-c2c(F)cc(I)c(F)c2F)nc(C(=O)O)c1Cl in the same way.
Found: 45 to 59%

Lookup: Next molecule: COC(=O)c1nc(-c2ccc(Br)c(F)c2)cc(N)c1Cl
Found: 0 to 29%

====

- System: test plant species in Direct Seeded Rice
- Protocol Notes: Postemergence herbicidal activity in direct seeded rice (Table 13)
- Format: in vivo
- Settings: post-emergence, 504 h; LEFSS: sprangletop (Leptochloa chinensis, Leptochloa dubia); 70 g ai/ha; read-out: Visual Growth Reduction (%) 21 Days After Application LEFSS
Recorded Metric: pest or weed control at 70 g/ha

1. COC(=O)c1nc(-c2ccc(Br)c(F)c2F)nc(N)c1OC : 0 to 29%
2. COC(=O)c1nc(-c2ccc(I)cc2F)cc(N)c1Cl : 95 to 100%
3. COC(=O)c1nc(-c2ccc(Cl)c(F)c2)c(F)c(N)c1Cl : 95 to 100%
4. COC(=O)c1nc(-c2ccc(Br)cc2)c(Cl)c(N)c1Cl : 0 to 29%

Lookup: Given the compound Nc1cc(-c2ccc(Br)cc2F)nc(C(=O)O)c1Cl , what is its reported pest or weed control at 70 g/ha?
Found: 95 to 100%

====

- System: Key Grass and Sedge Weeds as well as Grass Crops
- Protocol Notes: Post-emergent Test II herbicidal activity (Table 6)
- Assay type: in vivo
- Settings: post-emergence, 336 h, TRZSS (wheat, Triticum aestivum), crop, 70 g ai/ha, read-out: Visual Growth Reduction (%) 14 Days After Application, TRZSS
The reader will find reported pest or weed control at 70 g/ha values listed item by item below.

Lookup: Provide value of pest or weed control at 70 g/ha for this record tested with Key Grass and Sedge Weeds as well as Grass Crops: N#Cc1ccc(-c2nc(C(=O)O)c(Cl)c(N)c2F)cc1
Found: 30 to 44%

Lookup: Cool, now Nc1cc(-c2ccc(Br)c(F)c2F)nc(C(=O)O)c1Cl
Found: 45 to 59%

Lookup: Now consider COC(=O)c1nc(-c2ccc([N+](=O)[O-])cc2)c(F)c(N)c1Cl and answer again.
Found: 0 to 29%

Lookup: Same read-out for COC(=O)c1nc(-c2ccc(OC(F)F)c(F)c2F)c(F)c(N)c1Cl ?
Found: 0 to 29%

Lookup: Same lookup for C#Cc1ccc(-c2nc(N)c(OC)c(C(=O)OC)n2)c(F)c1 , please.
Found: 0 to 29%

Lookup: Then COC(=O)c1nc(-c2ccc(F)c(F)c2F)c(F)c(N)c1Cl ?
Found: 60 to 74%

Data provenance is patent US9113629B2.
